Reference for the values: PubChem BioAssay

Assay: S. cerevisiae RM11-1a growth modifiers, primary screen, strain RM11-1a, OD600, basal, 24 h (AID 1177);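 note: cultures grown under basal conditions with no added stressor; test concentration not given here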
Conditions: OD600, 24 h, higher = more signal, called active from +8 up or from −8 down

{"Compound structure string": "COCCOC(=O)N1C(=O)[C@@]2(c3cc(C#Cc4ccc(OC)cc4)ccc31)[C@H](c1ccc(OCCO)cc1)N1[C@H](c3ccccc3)[C@H](c3ccccc3)OC(=O)[C@H]1[C@@H]2C(=O)N1CCN(c2ncccn2)CC1", "z-score": 3.43}
{"Compound structure string": "COc1ccc(C#Cc2ccc3c(c2)[C@]2(C(=O)N3)[C@H](c3ccccc3OCCO)N3[C@H](c4ccccc4)[C@H](c4ccccc4)OC(=O)[C@H]3[C@@H]2C(=O)Nc2nc3ccccc3s2)cc1", "z-score": 2.93}
{"Compound structure string": "C=CCNC(=O)[C@@H]1[C@H]2C(=O)O[C@H](c3ccccc3)[C@H](c3ccccc3)N2[C@H](c2ccc(O)cc2)[C@@]12C(=O)Nc1ccc(C#CCNC(N)=O)cc12", "z-score": 0.24}
{"Compound structure string": "C=C(COC)/C(=C/C[C@@H](OC(C)=O)c1ccc(OCCO)cc1)c1cnc2ccccc2c1", "z-score": -1.49}
{"Compound structure string": "COc1ccccc1CN1C(=O)c2ccccc2[C@@H](C(=O)NC2CC2)[C@@H]1c1ccc(CO)cc1", "z-score": 0.184}
{"Compound structure string": "C=CCNC(=O)[C@@H]1[C@H]2C(=O)O[C@H](c3ccccc3)[C@H](c3ccccc3)N2[C@H](c2ccc(O)cc2)[C@@]12C(=O)N(C(=O)OCCOC)c1ccc(C#CCNC(N)=O)cc12", "z-score": -0.586}
{"Compound structure string": "O=C(c1ccccc1)N1C(=O)[C@@]2(Cc3ccccc31)N=C(c1ccc(OCCCO)cc1)O[C@H]2c1ccccc1", "z-score": 0.655}
{"Compound structure string": "CC(C)OC(=O)C=C1C[C@@H](c2ccccn2)O[C@@H](c2ccccn2)O1", "z-score": -0.391}
